Measured values drawn from patent US20220389003A1 for this set.

Quick reference: pIC50 of the listed items.
Biological target: UniProtKB Q86W56
Assay: Inhibition of PARG cellular assay (PAR foci in HeLa cells after MMS)
Type: cell-based
Design: endogenous in cells; host or cells: HeLa
Conditions: compound 1 h then MMS 1 h
pIC50: −log10 of the molar value.

C[C@H]1CN(c2cc(S(=O)(=O)NC3(C#N)CC3)cc3c2cnn3-c2nnc(C(F)F)s2)CCO1 6.52 to 7.00
Cc1ccncc1N1CCN(c2cc(S(=O)(=O)NC3(C#N)CC3)cc3c2cnn3-c2nnc(C(F)F)s2)CC1 6.52 to 7.00

# pIC50 lookup, item CN1Cc2cn(-c3cc(S(=O)(=O)NC4(C#N)CC4)cc4c3cnn4-c3nnc(C(F)F)s3)nc2C1
5.00 to 6.00

Now the molecule C[C@@H]1CN(c2cc(S(=O)(=O)NC3(C#N)CC3)cc3c2cnn3-c2nnc(C(F)F)s2)CCN1C(=O)N(C)C
≥ 7.00

Now the molecule CN1CCC[C@@H]1C(=O)N1CCN(c2cc(S(=O)(=O)NC3(C#N)CC3)cc3c2cnn3-c2nnc(C(F)F)s2)CC1
5.00 to 6.00

Now the molecule C[C@@H]1CN(c2cc(S(=O)(=O)NC3(C#N)CC3)cc3c2cnn3-c2nnc(C(F)F)s2)CCN1C(=O)C1(C)CC1
≥ 7.00

Now the molecule Cn1ccnc1N1CCN(c2cc(S(=O)(=O)NC3(C#N)CC3)cc3c2cnn3-c2nnc(C(F)F)s2)CC1
≥ 7.00

====

Target: PARG (Homo sapiens, UniProt Q86W56)
Sequence (Q86W56 whole entry): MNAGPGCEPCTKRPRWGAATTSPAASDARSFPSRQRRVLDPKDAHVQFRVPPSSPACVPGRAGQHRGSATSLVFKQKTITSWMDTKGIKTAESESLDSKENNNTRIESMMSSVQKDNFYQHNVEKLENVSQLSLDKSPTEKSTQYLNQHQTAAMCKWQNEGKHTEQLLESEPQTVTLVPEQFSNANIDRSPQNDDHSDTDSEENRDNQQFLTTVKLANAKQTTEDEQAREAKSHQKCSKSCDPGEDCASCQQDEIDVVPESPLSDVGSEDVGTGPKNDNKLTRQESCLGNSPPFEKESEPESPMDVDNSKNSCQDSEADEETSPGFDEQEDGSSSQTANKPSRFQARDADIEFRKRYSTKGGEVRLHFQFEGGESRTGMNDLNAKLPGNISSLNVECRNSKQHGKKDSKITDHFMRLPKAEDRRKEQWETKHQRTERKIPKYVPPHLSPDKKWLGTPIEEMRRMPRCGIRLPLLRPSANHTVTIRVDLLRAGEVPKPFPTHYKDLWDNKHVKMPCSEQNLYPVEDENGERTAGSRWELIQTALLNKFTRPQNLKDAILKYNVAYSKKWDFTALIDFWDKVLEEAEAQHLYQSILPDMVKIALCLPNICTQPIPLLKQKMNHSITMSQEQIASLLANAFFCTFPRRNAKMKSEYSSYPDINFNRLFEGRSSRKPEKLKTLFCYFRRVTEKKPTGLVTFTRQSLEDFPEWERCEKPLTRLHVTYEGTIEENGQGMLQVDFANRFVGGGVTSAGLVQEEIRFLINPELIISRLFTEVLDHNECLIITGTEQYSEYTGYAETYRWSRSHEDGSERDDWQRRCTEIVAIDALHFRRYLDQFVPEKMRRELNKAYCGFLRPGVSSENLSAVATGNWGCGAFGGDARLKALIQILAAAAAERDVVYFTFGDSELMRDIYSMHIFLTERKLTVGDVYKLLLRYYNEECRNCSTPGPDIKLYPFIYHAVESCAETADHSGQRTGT
Assay: Inhibition of PARG cellular assay (PAR foci in HeLa cells after MMS);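 also: IC50 from mean nuclear PAR foci intensity not percent-positive cells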
Format: cell-based
Set-up: endogenous in cells; host or cells: HeLa
Details: compound 1 h then MMS 1 h
Procedure: The ability of the compounds disclosed herein to inhibit PARG was determined as described below. […] After washing, images of the cells were captured and analyzed on a high content imaging microscope and software. Two measurement of PAR chain were quantified with the mean intensity over background of the nuclear foci (fluorescent signal at 488 nm range 0.3-2.0 μm foci) quantified as PAR foci (PAR Foci IC50). […]
Quick reference: IC50 of the listed items.

Consider the worked cases shown below.
CC(C)C(=O)N1[C@H](C)CN(c2cc(S(=O)(=O)NC3(C#N)CC3)cc3c2cnn3-c2nnc(C(F)F)s2)C[C@@H]1C ≤ 100 nM
CC1(C(=O)N2CCN(c3cc(S(=O)(=O)NC4(C#N)CC4)cc4c3cnn4-c3nnc(C(F)F)s3)CC2)CC1 ≤ 100 nM
N#CC1(NS(=O)(=O)c2cc(-c3ccccc3)c3cnn(-c4nnc(C(F)F)s4)c3c2)CC1 1000 to 10000 nM
CC(C)(C)C(=O)N1CCN(c2cc(S(=O)(=O)NC3(C#N)CC3)cc3c2cnn3-c2nnc(C(F)F)s2)CC1 ≤ 100 nM
N#CC1(NS(=O)(=O)c2cc(N3CCN4C(=O)CC[C@@H]4C3)c3cnn(-c4nnc(C(F)F)s4)c3c2)CC1 100 to 300 nM

# IC50 lookup, item N#CC1(NS(=O)(=O)c2cc(-c3cnccn3)c3cnn(-c4nnc(C(F)F)s4)c3c2)CC1
1000 to 10000 nM

Now the molecule CN1CCN(c2cc(S(=O)(=O)NC3(C#N)CC3)cc3c2cnn3-c2nnc(C(F)F)s2)CC1
300 to 1000 nM
